# Tested system: EGFR L858R/C797S (Homo sapiens, UniProt P00533, C797S/L858R)
# Sequence (P00533 25-1210 C797S/L858R): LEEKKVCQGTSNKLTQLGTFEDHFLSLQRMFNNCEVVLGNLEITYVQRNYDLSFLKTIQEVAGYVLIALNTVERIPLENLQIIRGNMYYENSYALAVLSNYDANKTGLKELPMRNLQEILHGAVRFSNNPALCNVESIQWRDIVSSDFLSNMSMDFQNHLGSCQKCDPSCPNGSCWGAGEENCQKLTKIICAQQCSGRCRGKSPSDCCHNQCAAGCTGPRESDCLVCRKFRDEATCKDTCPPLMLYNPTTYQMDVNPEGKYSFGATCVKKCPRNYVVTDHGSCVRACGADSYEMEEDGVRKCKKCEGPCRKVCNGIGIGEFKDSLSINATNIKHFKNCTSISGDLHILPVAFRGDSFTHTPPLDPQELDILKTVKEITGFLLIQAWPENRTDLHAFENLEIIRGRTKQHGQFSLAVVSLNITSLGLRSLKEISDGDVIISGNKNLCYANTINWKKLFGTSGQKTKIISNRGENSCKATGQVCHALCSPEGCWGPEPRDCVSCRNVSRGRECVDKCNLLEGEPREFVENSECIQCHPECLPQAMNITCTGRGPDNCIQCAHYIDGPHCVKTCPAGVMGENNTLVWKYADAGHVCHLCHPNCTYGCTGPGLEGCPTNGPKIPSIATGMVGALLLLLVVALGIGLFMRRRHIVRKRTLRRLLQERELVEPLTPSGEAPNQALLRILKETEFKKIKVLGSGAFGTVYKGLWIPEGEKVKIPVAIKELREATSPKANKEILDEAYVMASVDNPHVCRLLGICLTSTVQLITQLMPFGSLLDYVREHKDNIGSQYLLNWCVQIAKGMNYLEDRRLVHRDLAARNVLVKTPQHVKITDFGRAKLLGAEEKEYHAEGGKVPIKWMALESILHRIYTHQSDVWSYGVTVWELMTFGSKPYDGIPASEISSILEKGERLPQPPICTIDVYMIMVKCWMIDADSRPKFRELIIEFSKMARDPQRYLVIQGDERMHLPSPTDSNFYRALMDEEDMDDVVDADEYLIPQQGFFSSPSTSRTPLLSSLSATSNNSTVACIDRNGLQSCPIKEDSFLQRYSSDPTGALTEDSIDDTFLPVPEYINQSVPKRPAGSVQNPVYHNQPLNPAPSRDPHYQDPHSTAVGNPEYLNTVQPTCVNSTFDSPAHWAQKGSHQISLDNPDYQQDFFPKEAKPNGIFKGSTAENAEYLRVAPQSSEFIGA
# Test method notes: Biochemical EGFR kinase assay (Lance Ultra TR-FRET), double mutant L858R/C797S
# Condition notes: IC50 L858R/C797S, 100 μM ATP
Please use t for IC50 under 8 nM and f for everything else, ties included.

Before answering, review these 8 worked examples.
{"Compound": "CN(C)CCOc1ccc(-c2cnc(Nc3ccnc(-c4cnn(S(=O)(=O)C5CC5)c4)n3)cc2N[C@H]2CC[C@@](C)(O)CC2)nc1 [Example 208]", "Tested system": "EGFR L858R/C797S (Homo sapiens, UniProt P00533, C797S/L858R)", "Label": "t"}
{"Compound": "CC(C)(O)[C@H]1CC[C@@H](Nc2cc(Nc3ccnc(-c4cnn(S(=O)(=O)C5CC5)c4)n3)ncc2-c2ccc(OCCN3CCC3)cn2)CC1 [Example 217]", "Tested system": "EGFR L858R/C797S (Homo sapiens, UniProt P00533, C797S/L858R)", "Label": "t"}
{"Compound": "CC(C)(F)c1ccc(-c2cnc(Nc3ccnc(-c4cnn(S(=O)(=O)C5CC5)c4)n3)cc2N[C@H]2CC[C@@H](C(C)(C)O)CC2)nc1 [Example 236]", "Tested system": "EGFR L858R/C797S (Homo sapiens, UniProt P00533, C797S/L858R)", "Label": "f"}
{"Compound": "CC(O)(c1ccc(-c2cnc(Nc3ccnc(-c4cnn(S(=O)(=O)C5CC5)c4)n3)cc2NC2CCC(CO)CC2)nc1)C(F)(F)F (stereo not drawn) [Example 231]", "Tested system": "EGFR L858R/C797S (Homo sapiens, UniProt P00533, C797S/L858R)", "Label": "t"}
{"Compound": "CC(C)(O)[C@H]1CC[C@@H](Nc2cc(Nc3ccnc(-c4cnn(S(=O)(=O)C5CC5)c4)n3)ncc2-c2ccc(OCCO)cn2)CC1 [Example 207]", "Tested system": "EGFR L858R/C797S (Homo sapiens, UniProt P00533, C797S/L858R)", "Label": "f"}
{"Compound": "CC(C)(O)[C@H]1CC[C@@H](Nc2cc(Nc3ccnc(-c4cnn(S(=O)(=O)C5CC5)c4)n3)ncc2-c2ccc(CC(F)(F)F)cn2)CC1 [Example 220]", "Tested system": "EGFR L858R/C797S (Homo sapiens, UniProt P00533, C797S/L858R)", "Label": "f"}
{"Compound": "CN1CCN(C(=O)c2ccc(-c3cnc(Nc4ccnc(-c5cnn(S(=O)(=O)C6CC6)c5)n4)cc3N[C@H]3CC[C@@H](CO)CC3)nc2)CC1 [Example 202]", "Tested system": "EGFR L858R/C797S (Homo sapiens, UniProt P00533, C797S/L858R)", "Label": "t"}
{"Compound": "O=C(c1ccc(-c2cnc(Nc3ccnc(-c4cnn(S(=O)(=O)C5CC5)c4)n3)cc2N[C@H]2CC[C@@H](CO)CC2)nc1)N1CCOCC1 [Example 200]", "Tested system": "EGFR L858R/C797S (Homo sapiens, UniProt P00533, C797S/L858R)", "Label": "t"}

Determine whether this compound shows IC50 lower than 8 nM (ties excluded): O=S(=O)(C1CC1)n1cc(-c2nccc(Nc3cc(N[C@H]4CC[C@@H](CO)CC4)c(-c4ccc(OCCO)cn4)cn3)n2)cn1 [Example 206] t

Determine whether this compound shows IC50 lower than 8 nM (ties excluded): CN(C)C[C@H]1CC[C@@H](Nc2cc(Nc3ccnc(-c4cnn(S(=O)(=O)C5CC5)c4)n3)ncc2-c2cc(NC3CC(F)(F)C3)ccn2)CC1 [Example 216] t

Determine whether this compound shows IC50 lower than 8 nM (ties excluded): C[C@]1(O)CC[C@@H](Nc2cc(Nc3ccnc(-c4cnn(S(=O)(=O)C5CC5)c4)n3)ncc2-c2cc(NCCC(F)(F)F)ccn2)CC1 [Example 277] f

Determine whether this compound shows IC50 lower than 8 nM (ties excluded): C[C@]1(O)CC[C@@H](Nc2cc(Nc3ccnc(-c4cnn(S(=O)(=O)C5CC5)c4)n3)ncc2-c2cc(NCCCO)ccn2)CC1 [Example 282] t

Determine whether this compound shows IC50 lower than 8 nM (ties excluded): CN(C)CC1CCC(Nc2cc(Nc3ccnc(-c4cnn(S(=O)(=O)C5CC5)c4)n3)ncc2-c2ccc(C(C)(O)C(F)(F)F)cn2)CC1 (stereo not drawn) [Example 234] t

Determine whether this compound shows IC50 lower than 8 nM (ties excluded): CC(C)(O)C1CCC(Nc2cc(Nc3ccnc(-c4cnn(S(=O)(=O)C5CC5)c4)n3)ncc2-c2ccc(C(C)(O)C(F)(F)F)cn2)CC1 (stereo not drawn) [Example 233] f

Determine whether this compound shows IC50 lower than 8 nM (ties excluded): CS(=O)(=O)c1ccc(-c2cnc(Nc3ccnc(-c4cnn(S(=O)(=O)C5CC5)c4)n3)cc2N[C@H]2CC[C@@H](NCCF)CC2)nc1 [Example 157] f

Determine whether this compound shows IC50 lower than 8 nM (ties excluded): O=S(=O)(C1CC1)n1cc(-c2nccc(Nc3cc(N[C@H]4CCC[C@H](CO)C4)c(-c4ccc(C(O)C(F)(F)F)cn4)cn3)n2)cn1 (stereo partly drawn) [Example 228] f

Determine whether this compound shows IC50 lower than 8 nM (ties excluded): CN(C)S(=O)(=O)c1ccc(-c2cnc(Nc3ccnc(-c4cnn(S(=O)(=O)C5CC5)c4)n3)cc2N[C@H]2CC[C@@H](C(C)(C)O)CC2)nc1 [Example 165] f

Determine whether this compound shows IC50 lower than 8 nM (ties excluded): CC(C)(O)C1CCC(Nc2cc(Nc3ccnc(-c4cnn(S(=O)(=O)C5CC5)c4)n3)ncc2-c2ccc(C(O)C(F)(F)F)cn2)CC1 (stereo not drawn) [Example 229] f

Determine whether this compound shows IC50 lower than 8 nM (ties excluded): Cc1ccc(-c2cnc(Nc3ccnc(-c4cnn(S(=O)(=O)C5CC5)c4)n3)cc2N[C@H]2CC[C@@H](C(C)(C)O)CC2)nc1F [Example 180] f

Determine whether this compound shows IC50 lower than 8 nM (ties excluded): C[C@]1(O)CC[C@@H](Nc2cc(Nc3ccnc(-c4cnn(S(=O)(=O)C5CC5)c4)n3)ncc2-c2cc(NCCN3CCOCC3)ccn2)CC1 [Example 279] t

Determine whether this compound shows IC50 lower than 8 nM (ties excluded): CC(C)(O)[C@H]1CC[C@@H](Nc2cc(Nc3ccnc(-c4cnn(S(=O)(=O)C5CC5)c4)n3)ncc2-c2cccc(F)n2)CC1 [Example 163] f

Determine whether this compound shows IC50 lower than 8 nM (ties excluded): CN(C)CCOc1ccnc(-c2cnc(Nc3ccnc(-c4cnn(S(=O)(=O)C5CC5)c4)n3)cc2N[C@H]2CC[C@@](C)(O)CC2)c1 [Example 287] f
